test: Pharmacokinetics (PK) study in SD rat (IV, IP, PO; LC-MS/MS); assay type: in vivo; details: Sprague-Dawley, serum, PO, 10 mg/kg, read-out: serum half-life (converted)
Readings of half-life for the listed compounds
readout_type: half-life (h)

| compound | readout_type | observed |
| --- | --- | --- |
| COc1cc(N2CCC(N3CCN(C(=O)CNc4cccc5c4C(=O)N(C4CCC(=O)NC4=O)C5=O)CC3)CC2)ccc1Nc1ncc(Cl)c(Nc2ccccc2P(C)(C)=O)n1 (stereo not shown) | half-life | 7.09 |
| COc1cc(N2CCC(N3CCN(C(=O)CCOCCOCCNc4cccc5c4C(=O)N(C4CCC(=O)NC4=O)C5=O)CC3)CC2)ccc1Nc1ncc(Cl)c(Nc2ccccc2P(C)(C)=O)n1 (stereo not shown) | half-life | 3.98 |
| COc1cc(N2CCC(N3CCN(C(=O)CCCCCCNc4cccc5c4C(=O)N(C4CCC(=O)NC4=O)C5=O)CC3)CC2)ccc1Nc1ncc(Cl)c(Nc2ccccc2P(C)(C)=O)n1 (stereo not shown) | half-life | 2.13 |
| COc1cc(N2CCC(NC(=O)CCCNc3cccc4c3C(=O)N(C3CCC(=O)NC3=O)C4=O)CC2)ccc1Nc1ncc(Cl)c(Nc2ccccc2P(C)(C)=O)n1 (stereo not shown) | half-life | 4.66 |

====

molecular target: ALK protein in SR (NPM-ALK) cells (Homo sapiens, UniProt Q9UM73); construct: NPM (nucleophosmin, NPM1, P06748) fusion partner; host or cells: SR (ALCL) cells; the other entry of the earlier key: NPM1 (P06748, Nucleophosmin); test: Western blot of ALK protein level (degradation, DC50), ALK phosphorylation and downstream signaling in SR cells; assay type: cell-based; conditions: ALK protein degradation in SR cells
Sequence (Q9UM73 with tags, fused parts or gaps): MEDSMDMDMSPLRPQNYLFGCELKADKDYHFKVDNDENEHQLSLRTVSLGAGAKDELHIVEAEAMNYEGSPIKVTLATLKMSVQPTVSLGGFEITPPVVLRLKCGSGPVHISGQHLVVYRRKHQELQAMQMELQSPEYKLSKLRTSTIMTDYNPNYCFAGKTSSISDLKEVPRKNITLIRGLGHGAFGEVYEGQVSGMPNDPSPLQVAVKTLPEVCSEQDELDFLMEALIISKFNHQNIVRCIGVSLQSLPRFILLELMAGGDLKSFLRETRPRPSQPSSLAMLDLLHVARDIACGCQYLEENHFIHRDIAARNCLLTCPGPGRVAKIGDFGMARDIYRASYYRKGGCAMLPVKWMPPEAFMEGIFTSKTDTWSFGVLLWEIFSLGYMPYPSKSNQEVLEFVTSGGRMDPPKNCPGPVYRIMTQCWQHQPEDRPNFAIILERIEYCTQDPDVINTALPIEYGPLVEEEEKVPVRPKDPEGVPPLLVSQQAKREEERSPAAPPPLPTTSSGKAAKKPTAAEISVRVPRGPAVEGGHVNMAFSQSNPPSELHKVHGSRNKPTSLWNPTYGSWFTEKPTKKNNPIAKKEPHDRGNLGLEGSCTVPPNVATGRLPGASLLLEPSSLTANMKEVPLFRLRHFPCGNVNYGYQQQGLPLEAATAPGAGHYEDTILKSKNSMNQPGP
Readings of DC50 for the listed compounds

| compound | DC50 |
| --- | --- |
| COc1cc(N2CCN(C(=O)CCCCCCNc3cccc4c3C(=O)N(C3CCC(=O)NC3=O)C4=O)CC2)ccc1Nc1ncc(Cl)c(Nc2ccccc2P(C)(C)=O)n1 (centres unmarked) | 0.1 to 0.5 nM |
| COc1cc(N2CCC(N3CCN(C(=O)CCCCCNc4cccc5c4C(=O)N(C4CCC(=O)NC4=O)C5=O)CC3)CC2)ccc1Nc1ncc(Cl)c(Nc2ccccc2P(C)(C)=O)n1 (centres unmarked) | 1 to 10 nM |
| COc1cc(N2CCC(N3CCN(C(=O)CCOCCOCCNc4cccc5c4C(=O)N(C4CCC(=O)NC4=O)C5=O)CC3)CC2)ccc1Nc1ncc(Cl)c(Nc2ccccc2P(C)(C)=O)n1 (centres unmarked) | 1 to 10 nM |
| COc1cc(N2CCN(C(=O)CNc3cccc4c3C(=O)N(C3CCC(=O)NC3=O)C4=O)CC2)ccc1Nc1ncc(Cl)c(Nc2ccccc2P(C)(C)=O)n1 (centres unmarked) | 1 to 10 nM |
| COc1cc(N2CCC(NC(=O)CCCCCCNc3cccc4c3C(=O)N(C3CCC(=O)NC3=O)C4=O)CC2)ccc1Nc1ncc(Cl)c(Nc2ccccc2P(C)(C)=O)n1 (centres unmarked) | 0.1 to 2 nM |

====

molecular target: ALK protein in H3122 (EML4-ALK) cells (Homo sapiens, UniProt Q9UM73); construct: EML4 (Echinoderm microtubule-associated protein-like 4, Q9HC35) fusion partner, variant 1; host or cells: NCI-H3122 lung adenocarcinoma cells; the other entry of the earlier key: EML4 (Q9HC35, Echinoderm microtubule-associated protein-like 4); assay: Western blot of ALK protein level (degradation, DC50), ALK phosphorylation and downstream signaling in H3122 cells; assay type: cell-based; conditions: ALK protein degradation in H3122 cells
Sequence (Q9UM73 with tags, fused parts or gaps): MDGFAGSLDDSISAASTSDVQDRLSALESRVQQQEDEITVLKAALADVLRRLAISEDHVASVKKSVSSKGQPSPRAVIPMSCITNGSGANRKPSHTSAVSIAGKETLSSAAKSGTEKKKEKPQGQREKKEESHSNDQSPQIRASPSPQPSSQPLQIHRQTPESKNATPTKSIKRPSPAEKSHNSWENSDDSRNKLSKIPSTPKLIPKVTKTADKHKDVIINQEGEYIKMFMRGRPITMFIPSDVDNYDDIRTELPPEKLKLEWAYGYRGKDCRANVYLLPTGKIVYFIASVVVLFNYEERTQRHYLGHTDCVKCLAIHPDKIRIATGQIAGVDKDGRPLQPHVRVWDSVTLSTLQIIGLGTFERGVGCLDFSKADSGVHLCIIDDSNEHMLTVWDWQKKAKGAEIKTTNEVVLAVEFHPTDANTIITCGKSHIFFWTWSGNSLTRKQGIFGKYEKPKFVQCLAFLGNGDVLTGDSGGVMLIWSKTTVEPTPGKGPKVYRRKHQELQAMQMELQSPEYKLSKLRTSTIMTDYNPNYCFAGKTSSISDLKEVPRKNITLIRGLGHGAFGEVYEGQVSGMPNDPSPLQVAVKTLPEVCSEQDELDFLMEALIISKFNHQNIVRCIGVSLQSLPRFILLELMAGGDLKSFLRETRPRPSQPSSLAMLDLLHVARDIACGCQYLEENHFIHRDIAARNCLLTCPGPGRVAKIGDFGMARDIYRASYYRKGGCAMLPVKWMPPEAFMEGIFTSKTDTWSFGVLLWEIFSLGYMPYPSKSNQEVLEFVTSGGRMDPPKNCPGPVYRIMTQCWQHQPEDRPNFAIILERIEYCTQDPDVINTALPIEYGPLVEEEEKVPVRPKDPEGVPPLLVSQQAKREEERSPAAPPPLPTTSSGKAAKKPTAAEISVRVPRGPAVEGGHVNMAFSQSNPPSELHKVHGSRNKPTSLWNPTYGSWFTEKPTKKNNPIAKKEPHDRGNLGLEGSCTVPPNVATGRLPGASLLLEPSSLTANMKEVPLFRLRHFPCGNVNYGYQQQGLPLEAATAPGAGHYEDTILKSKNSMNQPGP

| molecule | DC50 |
| --- | --- |
| COc1cc(N2CCN(C(=O)CCCCCCC(=O)N[C@H](C(=O)N3C[C@H](O)C[C@H]3C(=O)NCc3ccc(-c4scnc4C)cc3)C(C)(C)C)CC2)ccc1Nc1ncc(Cl)c(Nc2ccccc2P(C)(C)=O)n1 [SIAIS1197153] | 1 to 50 nM |
| COc1cc(N2CCC(NC(=O)CCCCCCC(=O)N[C@H](C(=O)N3C[C@H](O)C[C@H]3C(=O)NCc3ccc(-c4scnc4C)cc3)C(C)(C)C)CC2)ccc1Nc1ncc(Cl)c(Nc2ccccc2P(C)(C)=O)n1 [SIAIS164147] | 0.02 to 1 nM |
| COc1cc(N2CCC(NC(=O)CCOCCOCCOCCOCCNc3cccc4c3C(=O)N(C3CCC(=O)NC3=O)C4=O)CC2)ccc1Nc1ncc(Cl)c(Nc2ccccc2P(C)(C)=O)n1 (centres unmarked) [SIAIS151116] | 100 to 500 nM |
| COc1cc(N2CCC(N3CCN(C(=O)CCOCCNc4cccc5c4C(=O)N(C4CCC(=O)NC4=O)C5=O)CC3)CC2)ccc1Nc1ncc(Cl)c(Nc2ccccc2P(C)(C)=O)n1 (centres unmarked) [SIAIS164007] | 10 to 50 nM |
| Cc1cc(Nc2ncc(Cl)c(Nc3ccccc3S(=O)(=O)C(C)C)n2)c(OC(C)C)cc1C1CCN(C(=O)CCOCCOCCNc2cccc3c2C(=O)N(C2CCC(=O)NC2=O)C3=O)CC1 (centres unmarked) [SIAIS151023] | 10 to 100 nM |

====

molecular target: ALK protein in H3122 (EML4-ALK) cells (Homo sapiens); construct: EML4 (Echinoderm microtubule-associated protein-like 4, Q9HC35) fusion partner, variant 1; host or cells: NCI-H3122 lung adenocarcinoma cells; the other entry of the earlier key: EML4 (Q9HC35, Echinoderm microtubule-associated protein-like 4); test: Western blot of ALK protein level (degradation, DC50), ALK phosphorylation and downstream signaling in H3122 cells; type: cell-based; conditions: ALK protein degradation in H3122 cells
readout_type: DC50

| compound | readout_type | observed |
| --- | --- | --- |
| COc1cc(N2CCN(C(=O)CCCCCCCC(=O)N[C@H](C(=O)N3C[C@H](O)C[C@H]3C(=O)NCc3ccc(-c4scnc4C)cc3)C(C)(C)C)CC2)ccc1Nc1ncc(Cl)c(Nc2ccccc2P(C)(C)=O)n1 | DC50 | 1 to 50 nM |
| COc1cc(N2CCN(C(=O)CCCCCCCCC(=O)N[C@H](C(=O)N3C[C@H](O)C[C@H]3C(=O)NCc3ccc(-c4scnc4C)cc3)C(C)(C)C)CC2)ccc1Nc1ncc(Cl)c(Nc2ccccc2P(C)(C)=O)n1 | DC50 | 1 to 50 nM |
| Cc1cc(Nc2ncc(Cl)c(Nc3ccccc3S(=O)(=O)C(C)C)n2)c(OC(C)C)cc1C1CCN(C(=O)CCC(=O)N[C@H](C(=O)N2C[C@H](O)C[C@H]2C(=O)NCc2ccc(-c3scnc3C)cc2)C(C)(C)C)CC1 | DC50 | 100 to 500 nM |
| CCc1cc2c(cc1N1CCN(C(=O)CCCC(=O)N[C@H](C(=O)N3C[C@H](O)C[C@H]3C(=O)NCc3ccc(-c4scnc4C)cc3)C(C)(C)C)CC1)C(C)(C)c1[nH]c3cc(C#N)ccc3c1C2=O | DC50 | 20 to 100 nM |
| COc1cc(N2CCC(NC(=O)CCCCCCCC(=O)N[C@H](C(=O)N3C[C@H](O)C[C@H]3C(=O)NCc3ccc(-c4scnc4C)cc3)C(C)(C)C)CC2)ccc1Nc1ncc(Cl)c(Nc2ccccc2P(C)(C)=O)n1 | DC50 | 1 to 50 nM |
| Cc1cc(Nc2ncc(Cl)c(Nc3ccccc3S(=O)(=O)C(C)C)n2)c(OC(C)C)cc1C1CCN(C(=O)CCOCCOCCOCCNc2cccc3c2C(=O)N(C2CCC(=O)NC2=O)C3=O)CC1 (stereo not drawn) | DC50 | 20 to 100 nM |
| COc1cc(N2CCN(C(=O)CCOCCNc3cccc4c3C(=O)N(C3CCC(=O)NC3=O)C4=O)CC2)ccc1Nc1ncc(Cl)c(Nc2ccccc2P(C)(C)=O)n1 (stereo not drawn) | DC50 | 100 to 500 nM |
| COc1cc(N2CCC(NC(=O)CCC(=O)NCCNc3cccc4c3C(=O)N(C3CCC(=O)NC3=O)C4=O)CC2)ccc1Nc1ncc(Cl)c(Nc2ccccc2P(C)(C)=O)n1 (stereo not drawn) | DC50 | 1 to 50 nM |
| COc1cc(N2CCN(C(=O)CNc3cccc4c3C(=O)N(C3CCC(=O)NC3=O)C4=O)CC2)ccc1Nc1ncc(Cl)c(Nc2ccccc2P(C)(C)=O)n1 (stereo not drawn) | DC50 | 1 to 50 nM |

====

Readings of DC50 for the listed compounds
molecular target: ALK protein in H3122 (EML4-ALK) cells (Homo sapiens); construct: EML4 (Echinoderm microtubule-associated protein-like 4, Q9HC35) fusion partner, variant 1; host or cells: NCI-H3122 lung adenocarcinoma cells; the other entry of the earlier key: EML4 (Q9HC35, Echinoderm microtubule-associated protein-like 4); experiment: Western blot of ALK protein level (degradation, DC50), ALK phosphorylation and downstream signaling in H3122 cells; type: cell-based; conditions: ALK protein degradation in H3122 cells

| compound | DC50 |
| --- | --- |
| COc1cc(N2CCC(N3CCN(C(=O)CNc4cccc5c4C(=O)N(C4CCC(=O)NC4=O)C5=O)CC3)CC2)ccc1Nc1ncc(Cl)c(Nc2ccccc2P(C)(C)=O)n1 (stereo not shown) | 1 to 10 nM |
| COc1cc(N2CCC(NC(=O)CNc3cccc4c3C(=O)N(C3CCC(=O)NC3=O)C4=O)CC2)ccc1Nc1ncc(Cl)c(Nc2ccccc2P(C)(C)=O)n1 (stereo not shown) | 20 to 100 nM |
| COc1cc(N2CCN(C(=O)CCCCNc3cccc4c3C(=O)N(C3CCC(=O)NC3=O)C4=O)CC2)ccc1Nc1ncc(Cl)c(Nc2ccccc2P(C)(C)=O)n1 (stereo not shown) | 50 to 500 nM |
| Cc1cc(Nc2ncc(Cl)c(Nc3ccccc3S(=O)(=O)C(C)C)n2)c(OC(C)C)cc1C1CCN(C(=O)CCCC(=O)N[C@H](C(=O)N2C[C@H](O)C[C@H]2C(=O)NCc2ccc(-c3scnc3C)cc2)C(C)(C)C)CC1 | 100 to 500 nM |
| Cc1cc(Nc2ncc(Cl)c(Nc3ccccc3S(=O)(=O)C(C)C)n2)c(OC(C)C)cc1C1CCN(C(=O)CCCCCC(=O)N[C@H](C(=O)N2C[C@H](O)C[C@H]2C(=O)NCc2ccc(-c3scnc3C)cc2)C(C)(C)C)CC1 | 20 to 100 nM |
| C[C@@H](Oc1cc(-c2cnn(C3CCN(C(=O)CCOCCOCCOCCOCCNc4cccc5c4C(=O)N(C4CCC(=O)NC4=O)C5=O)CC3)c2)cnc1N)c1c(Cl)ccc(F)c1Cl (stereo partly shown) | 100 to 500 nM |
| COc1cc(N2CCC(N3CCN(C(=O)CCCCCNc4cccc5c4C(=O)N(C4CCC(=O)NC4=O)C5=O)CC3)CC2)ccc1Nc1ncc(Cl)c(Nc2ccccc2P(C)(C)=O)n1 (stereo not shown) | 1 to 10 nM |
| COc1cc(N2CCC(N3CCN(C(=O)CCOCCOCCOCCOCCC(=O)N[C@H](C(=O)N4C[C@H](O)C[C@H]4C(=O)NCc4ccc(-c5scnc5C)cc4)C(C)(C)C)CC3)CC2)ccc1Nc1ncc(Cl)c(Nc2ccccc2P(C)(C)=O)n1 | 100 to 500 nM |
| COc1cc(N2CCN(C(=O)CCCCCC(=O)N[C@H](C(=O)N3C[C@H](O)C[C@H]3C(=O)NCc3ccc(-c4scnc4C)cc3)C(C)(C)C)CC2)ccc1Nc1ncc(Cl)c(Nc2ccccc2P(C)(C)=O)n1 | 20 to 100 nM |
| COc1cc(N2CCN(C(=O)CCOCCOCCOCCOCCOCCNc3cccc4c3C(=O)N(C3CCC(=O)NC3=O)C4=O)CC2)ccc1Nc1ncc(Cl)c(Nc2ccccc2P(C)(C)=O)n1 (stereo not shown) | 100 to 500 nM |
| Cc1cc(Nc2ncc(Cl)c(Nc3ccccc3S(=O)(=O)C(C)C)n2)c(OC(C)C)cc1C1CCN(C(=O)CCOCCNc2cccc3c2C(=O)N(C2CCC(=O)NC2=O)C3=O)CC1 (stereo not shown) | 100 to 500 nM |
| COc1cc(N2CCC(N3CCN(C(=O)CCCc4cn(CCCC(=O)N[C@H](C(=O)N5C[C@H](O)C[C@H]5C(=O)NCc5ccc(-c6scnc6C)cc5)C(C)(C)C)nn4)CC3)CC2)ccc1Nc1ncc(Cl)c(Nc2ccccc2P(C)(C)=O)n1 | 1 to 10 nM |
| COc1cc(N2CCC(N3CCN(C(=O)CCCCNc4cccc5c4C(=O)N(C4CCC(=O)NC4=O)C5=O)CC3)CC2)ccc1Nc1ncc(Cl)c(Nc2ccccc2P(C)(C)=O)n1 (stereo not shown) | 1 to 10 nM |
